test: log P by HPLC on reversed phase columns (EEC directive 79/831 Annex V.A8); assay type: physicochemical; settings: reversed phase HPLC column, LC-UV, neutral range, 0.001 molar ammonium acetate in water and acetonitrile (table footnote); read-out: LogP^[a]
measured attribute: chromatographic logP

molecule	chromatographic logP
COCCNC(C)c1ncnn1-c1ncccn1 (stereo not shown) [a-006]	0.52
CC(NCc1cccnc1)c1ncnn1-c1ncccn1 (stereo not shown) [a-019]	0.68
CC(NCCSC(F)(F)F)c1ncnn1-c1ccc(C#N)cn1 (stereo not shown) [a-026]	2.51
CC(NCc1ccncc1)c1ncnn1-c1ncccn1 (stereo not shown) [a-014]	0.53
CC(NCC1CSC1)c1ncnn1-c1ncccn1 (stereo not shown) [a-007]	1.12
CC(NCC1CCOCC1)c1ncnn1-c1ncccn1 (stereo not shown) [a-003]	0.85
CC(NCc1ncccn1)c1ncnn1-c1ncccn1 (stereo not shown) [a-011]	0.38
CC(NCC1(c2ccccc2)CC1)c1ncnn1-c1ncccn1 (stereo not shown) [a-005]	1.9
CSCCNC(C)c1ncnn1-c1ncccn1 (stereo not shown) [a-017]	0.92
CC(NCC1(C)CC1)c1ncnn1-c1ncccn1 (stereo not shown) [a-010]	1.73

I. CC(NCc1ccc(C#N)cc1)c1ncnn1-c1ncccn1 (stereo not shown) [a-018]
II. CC(NCC1CCOC1)c1ncnn1-c1ncccn1 (stereo not shown) [a-013]
Return label of the item with the larger chromatographic logP. Candidates: I , II . Answer format: the label of the selected item.
I

* * *

test: log P by HPLC on reversed phase columns (EEC directive 79/831 Annex V.A8); type: physicochemical; conditions: reversed phase HPLC column, LC-UV, neutral range, 0.001 molar ammonium acetate in water and acetonitrile (table footnote); read-out: LogP^[a]
measured attribute: chromatographic logP

Example cases with answers are listed next.
compound	chromatographic logP
CC(NCC1OCCO1)c1ncnn1-c1ncccn1 (stereo not drawn) [a-022]	0.53
CC(NCc1ccccn1)c1ncnn1-c1ncccn1 (stereo not drawn) [a-001]	0.72
CSCCNC(C)c1ncnn1-c1ccc(C#N)cn1 (stereo not drawn) [a-025]	1.65
CC(NCC1CCCC1)c1ncnn1-c1ncccn1 (stereo not drawn) [a-004]	1.67

I. CC(NCCc1ccc(F)cc1)c1ncnn1-c1ncccn1 (stereo not drawn) [a-009]
II. CC(NC1CC1)c1ncnn1-c1ncccn1 (stereo not drawn) [a-002]
Return label of the item with the larger chromatographic logP. Candidates: I , II . Answer format: the label of the selected item.
I

* * *

Test system: Rhipicephalus sanguineus
Experiment: Rhipicephalus sanguineus in-vitro contact test, adult brown dog ticks
Format: in vivo
Settings: 5 μg/cm^2, after 48 hours
Method: 9 mg compound is solved in 1 ml acetone and diluted with acetone to the desired concentration. […] After the solvent has evaporated, each test tube is filled with 5-10 adult brown dog ticks (Rhipicephalus sanguineus), closed with a perforated lid and incubated in a lying position at room temperature and relative humidity. After 48 hours efficacy is determined. […]
measured attribute: efficacy (ticks dead or moribund) (%)
Record the value in %, omitting the unit from your answer.

compound	system tested	output unit	assay result
CCON(C(=O)c1cccc(C(F)(F)F)c1)C(C)c1ncnn1-c1ncccn1 (centres unmarked) [Example I-029]	Rhipicephalus sanguineus	%	80
CSCCN(C(=O)c1cc(Cl)cc(C(F)(F)F)c1)C(C)c1ncnn1-c1ncccn1 (centres unmarked) [Example I-017]	Rhipicephalus sanguineus	%	100
COCCN(C(=O)c1cc(Cl)cc(C(F)(F)F)c1)C(C)c1ncnn1-c1ncccn1 (centres unmarked) [Example I-005]	Rhipicephalus sanguineus	%	80
CON(C(=O)c1cccc(C(F)(F)F)c1)C(C)c1ncnn1-c1ncccn1 (centres unmarked) [Example I-028]	Rhipicephalus sanguineus	%	100

Then there is this compound:
What is its efficacy (ticks dead or moribund) for Rhipicephalus sanguineus? Entry: CCOCN(C(=O)c1cc(Cl)cc(C(F)(F)F)c1)C(C)c1ncnn1-c1ncccn1 (centres unmarked) [Example I-013]
100

* * *

assay: log P by HPLC on reversed phase columns (EEC directive 79/831 Annex V.A8); format: physicochemical; conditions: reversed phase HPLC column, LC-UV, neutral range, 0.001 molar ammonium acetate in water and acetonitrile (table footnote); read-out: LogP^[a]
measured attribute: chromatographic logP

Example cases with answers are listed next.
compound	chromatographic logP
CC(NC1COC1)c1ncnn1-c1ncccn1 (stereo not drawn) [a-021]	0.26
CC(NCC1CCCCC1)c1ncnn1-c1ncccn1 (stereo not drawn) [a-016]	2.03
CC(NCC1CCCO1)c1ncnn1-c1ncccn1 (stereo not drawn) [a-012]	0.8

1. CC(NC1CSC1)c1ncnn1-c1ncccn1 (stereo not drawn) [a-023]
2. COc1ccc(CNC(C)c2ncnn2-c2ncccn2)cc1 (stereo not drawn) [a-020]
3. CONC(C)c1ncnn1-c1ncccn1 (stereo not drawn) [a-024]
// ranking: key=chromatographic logP, reverse=True # output: labels, in the requested order
2, 1, 3
(2: 1.41, 1: 0.87, 3: 0.42)

* * *

tested on: Tetranychus urticae (OP-Resistant); experiment: Tetranychus urticae (OP-resistant) spray test; assay type: in vivo; details: 144 h, after 6 days
Form field: mortality at 500 g/ha (one value per entry).
Record the value in %, omitting the unit from your answer.

compound	system tested	mortality at 500 g/ha, %
CCON(C(=O)c1cc(Cl)cc(C(F)(F)F)c1)C(C)c1ncnn1-c1ncccn1 (centres unmarked)	Tetranychus urticae (OP-Resistant)	80

Using the record for CON(C(=O)c1cc(Cl)cc(C(F)(F)F)c1)C(C)c1ncnn1-c1ncccn1 (centres unmarked) , report its mortality at 500 g/ha.
90

Using the record for CSCCN(C(=O)c1cc(Cl)cc(S(C)(=O)=O)c1)C(C)c1ncnn1-c1ccc(C#N)cn1 (centres unmarked) , report its mortality at 500 g/ha.
90

Using the record for CCOCN(C(=O)c1cc(Cl)cc(C(F)(F)F)c1)C(C)c1ncnn1-c1ncccn1 (centres unmarked) , report its mortality at 500 g/ha.
80

Using the record for CC(c1ncnn1-c1ncccn1)N(Cc1ccccn1)C(=O)c1cc(Cl)cc(C(F)(F)F)c1 (centres unmarked) , report its mortality at 500 g/ha.
95
